system: KB; assay: Cytotoxicity against human KB cells after 72 hrs by SRB assay; type: functional, cell-based
observed-property: IC50 (nM)

[
  {
    "structure-smiles": "CC[C@@]1(O)C(=O)OCc2c1cc1n(c2=O)Cc2c-1nc1ccccc1c2CN1CCN(/C(Cc2ccc(F)cc2)=N\\S(=O)(=O)c2cccnc2)CC1",
    "value-measured": 6760
  },
  {
    "structure-smiles": "CC[C@@]1(O)C(=O)OCc2c1cc1n(c2=O)Cc2c-1nc1ccccc1c2CN1CCN(/C(Cc2ccccc2)=N\\S(C)(=O)=O)CC1",
    "value-measured": 130
  },
  {
    "structure-smiles": "CC[C@@]1(O)C(=O)OCc2c1cc1n(c2=O)Cc2c-1nc1ccccc1c2CN1CCN(/C(Cc2ccc(OC)cc2)=N\\S(=O)(=O)CC)CC1",
    "value-measured": 470
  },
  {
    "structure-smiles": "CC[C@@]1(O)C(=O)OCc2c1cc1n(c2=O)Cc2c-1nc1ccccc1c2CN1CCN(/C(Cc2ccc(F)cc2)=N\\S(=O)(=O)CC)CC1",
    "value-measured": 330
  },
  {
    "structure-smiles": "CC[C@@]1(O)C(=O)OCc2c1cc1n(c2=O)Cc2c-1nc1ccccc1c2CN1CCN(/C(Cc2ccc(OC)cc2)=N\\S(=O)(=O)c2ccc3ccccc3c2)CC1",
    "value-measured": 840
  },
  {
    "structure-smiles": "CC[C@@]1(O)C(=O)OCc2c1cc1n(c2=O)Cc2c-1nc1ccccc1c2CN1CCN(/C(Cc2ccc(F)cc2)=N\\S(=O)(=O)c2ccc3ccccc3c2)CC1",
    "value-measured": 4720
  },
  {
    "structure-smiles": "CC[C@@]1(O)C(=O)OCc2c1cc1n(c2=O)Cc2c-1nc1ccccc1c2CN1CCN(/C(Cc2ccccc2)=N\\S(=O)(=O)c2ccccc2)CC1",
    "value-measured": 630
  },
  {
    "structure-smiles": "CC[C@@]1(O)C(=O)OCc2c1cc1n(c2=O)Cc2c-1nc1ccccc1c2CN1CCN(/C(Cc2ccc(F)cc2)=N\\S(=O)(=O)c2ccc(C)cc2)CC1",
    "value-measured": 1070
  },
  {
    "structure-smiles": "CC[C@@]1(O)C(=O)OCc2c1cc1n(c2=O)Cc2c-1nc1ccccc1c2CN1CCN(/C(Cc2ccccc2)=N\\S(=O)(=O)c2cccs2)CC1",
    "value-measured": 590
  },
  {
    "structure-smiles": "CC[C@@]1(O)C(=O)OCc2c1cc1n(c2=O)Cc2c-1nc1ccccc1c2CN1CCN(/C(Cc2ccc(OC)cc2)=N\\S(=O)(=O)c2ccc([N+](=O)[O-])cc2)CC1",
    "value-measured": 1060
  },
  {
    "structure-smiles": "CC[C@@]1(O)C(=O)OCc2c1cc1n(c2=O)Cc2c-1nc1ccccc1c2CN1CCN(/C(Cc2ccccc2)=N\\S(=O)(=O)CC)CC1",
    "value-measured": 490
  },
  {
    "structure-smiles": "CC[C@@]1(O)C(=O)OCc2c1cc1n(c2=O)Cc2c-1nc1ccccc1c2CN1CCN(/C(Cc2ccccc2)=N\\S(=O)(=O)c2ccc(Cl)cc2)CC1",
    "value-measured": 740
  }
]

###

tested on: KB; assay: Cytotoxicity against human KB cells after 72 hrs by SRB assay; format: functional, cell-based
pIC50: −log10 of the molar value.
observed-property: pIC50

[
  {
    "structure-smiles": "CC[C@@]1(O)C(=O)OCc2c1cc1n(c2=O)Cc2c-1nc1ccccc1c2CN1CCN(/C(Cc2ccc(F)cc2)=N\\S(=O)(=O)c2ccc([N+](=O)[O-])cc2)CC1",
    "experimental-system": "KB",
    "value-measured": 5.35
  },
  {
    "structure-smiles": "CC[C@@]1(O)C(=O)OCc2c1cc1n(c2=O)Cc2c-1nc1ccccc1c2CN1CCN(/C(Cc2ccc(OC)cc2)=N\\S(=O)(=O)c2cccnc2)CC1",
    "experimental-system": "KB",
    "value-measured": 6.06
  },
  {
    "structure-smiles": "CC[C@@]1(O)C(=O)OCc2c1cc1n(c2=O)Cc2c-1nc1ccccc1c2CN1CCN(/C(Cc2ccc(OC)cc2)=N\\S(=O)(=O)c2ccc(C)cc2)CC1",
    "experimental-system": "KB",
    "value-measured": 6.08
  },
  {
    "structure-smiles": "CC[C@@]1(O)C(=O)OCc2c1cc1n(c2=O)Cc2c-1nc1ccccc1c2CN1CCN(/C(Cc2ccc(F)cc2)=N\\S(=O)(=O)c2ccc(F)cc2)CC1",
    "experimental-system": "KB",
    "value-measured": 4.99
  },
  {
    "structure-smiles": "CC[C@@]1(O)C(=O)OCc2c1cc1n(c2=O)Cc2c-1nc1ccccc1c2CN1CCN(/C(Cc2ccccc2)=N\\S(=O)(=O)c2cccnc2)CC1",
    "experimental-system": "KB",
    "value-measured": 6.14
  },
  {
    "structure-smiles": "CC[C@@]1(O)C(=O)OCc2c1cc1n(c2=O)Cc2c-1nc1ccccc1c2CN1CCN(/C(Cc2ccccc2)=N\\S(=O)(=O)c2ccc3ccccc3c2)CC1",
    "experimental-system": "KB",
    "value-measured": 5.68
  }
]

Cited source for all entries: ChEMBL document CHEMBL4043152
